Below, each entry is listed alongside its reported Kd.
# target-entity: T1, Human CD138 His (human, UniProt P18827 23-254)
# T1 construct: also called hCD138
# T1 sequence: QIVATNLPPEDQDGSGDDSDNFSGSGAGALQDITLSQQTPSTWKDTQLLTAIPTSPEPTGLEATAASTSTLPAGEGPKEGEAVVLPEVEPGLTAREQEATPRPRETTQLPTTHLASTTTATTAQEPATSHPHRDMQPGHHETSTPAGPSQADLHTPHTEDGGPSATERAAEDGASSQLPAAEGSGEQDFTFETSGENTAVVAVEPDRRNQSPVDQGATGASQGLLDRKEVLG
# assay-details: SPR, summary table
// return numeric value only (unit: nM, not printed)

F13P14D3 (antibody, V domains shown, Murine IgG purified from hybridoma supernatant) VH: EVQLVESGGGLVQPKGSLKLSCATSGFTFNTYAMNWVRQAPGKGLEWVARIRSKSNNYATYYVDSVKDRFTISRDDSQSTVHLQMNNLKTEDTAIYYCVTDYGHVYFDVWGAGTTVTVSS VL: NIVMTQSPKSMSMSVGQRVTLSCKASENVGSYVSWYQQKPEQSPKLLIYGASNRNTGVPDRFTGSGSATDFTLTISSVQAEDLADYHCGQSSRYPLTFGGGTKLELKR | 10

API: the following record is the query input.
Data request: // returns reported Kd for input F13P18D8 (antibody, V domains shown, Murine IgG purified from hybridoma supernatant) VH: EVQLLESGGGLVQPEGSLKLSCAASGFAFNTYAMNWVRQAPGKGLEWLARIRSKSNNYATYYADSVKDRFTISRDDSQGMLYLQMNNLKTEDTAMYYCVTDYYYVYFDVWGAGTTVTVSS VL: NIVMTQSPKSMSMSVGERVTLSCKASENVGTYVSWYQQKSDQSPKLLIYGASNRYTGVPDRFTGSGSATDFTLTITSVQSEDLADYHCGQSSRYPLTFGAGTKLELKR
Data returned: 2
